Tested on: OVCAR-8
Experiment: NCI tumour cell line growth inhibition, 48 h
The source made the active and inactive calls. No stated cut-off is given here; in the data, active = GI50 up to about 1.1 µM and inactive = higher.
Recorded metric: GI50

In plain terms, O=S1(=O)OCCCOS(=O)(=O)C1Br has a documented GI50 of > 100 µM (inactive)

In plain terms, CN(O)C(=O)c1ccc(OCc2cccc(Cl)c2)cc1 has a documented GI50 of 19 µM (inactive)

In plain terms, CC(C)OP(=O)(CCCCCCCCC/C=C/c1ccc2c(c1)OCCOCCOCCOCCO2)OC(C)C has a documented GI50 of 3.15 µM (inactive)

In plain terms, CC(NNC(=O)c1cc[n+]([BH2-]C#N)cc1)c1cccc(F)c1 (stereo not drawn) has a documented GI50 of > 100 µM (inactive)

In plain terms, C#Cc1ccccc1C(=O)OC has a documented GI50 of > 100 µM (inactive)

In plain terms, CC1=NN(C(=O)CC(=O)Nc2ccccc2Cl)C(=O)C1/N=N\c1ccc(S(=O)(=O)c2ccc(/N=N/C3C(=O)N(C(=O)CC(=O)Nc4ccccc4Cl)N=C3C)cc2)cc1 (stereo not drawn) has a documented GI50 of > 100 µM (inactive)

In plain terms, O=c1[nH]c(=O)n(C2CC(O)C(CO)O2)cc1C#Cc1ccc(C(F)(F)F)cc1 (stereo not drawn) has a documented GI50 of > 100 µM (inactive)

In plain terms, COC(=O)N/N=C(/c1nc2ccc([N+](=O)[O-])cc2nc1O)C(O)c1ccc(OC)c(OC)c1 (stereo not drawn) has a documented GI50 of > 100 µM (inactive)
